Where do these numbers come from? They come from patent US20170298073A1.

test: Thermodynamic solubility at room temperature; format: physicochemical; settings: 25 °C, organic solvent or mixture, thermodynamic from solid, solvent n-Heptane/THF (4:1 by volume)
property: solubility

q: Please report the measured solubility for CNC[C@@H](O)COc1ccc(Cl)c(-c2nc(-c3c(C)noc3C)c(C)c(N3CC4(CCN(C(=O)OC)CC4)C3)n2)c1 [Form A]
a: < 1600 µg/mL

---

assay: Thermodynamic solubility at room temperature; format: physicochemical; settings: 25 °C, organic solvent or mixture, thermodynamic from solid, solvent EtOH
property: solubility

q: Given the compound CNC[C@@H](O)COc1ccc(Cl)c(-c2nc(-c3c(C)noc3C)c(C)c(N3CC4(CCN(C(=O)OC)CC4)C3)n2)c1 [Form A] , write its reported solubility.
a: > 40 mg/mL
